# STUDY SYSTEM: ADAMTS17-PCD (human)
# PROCEDURE DETAILS: SPR; ADAMTS17-PCD (3300 RU) or ADAMTS17-AD (2530 RU) amine-coupled to a CM5 chip, BIAcore 3000; analytes flowed at 20 μl/min; 25 °C; TBS with 2 mM CaCl2 and 0.005% SP20; 1:1 stoichiometry assumed
pKd: −log10 of the molar value.

{"SUBSTANCE": "ADAMTS17-PCD (domain or fragment)", "pKd": 5.85}
